Tested on: A549 cells
Protocol Description: Cytotoxicity against A549 cells (CellTiter-Glo)
Assay type: cell-based
Measured Parameter: A549 cytotoxicity LC50 (50% lethal concentration)

Example results:
Nc1nc2ccc(C(=O)NCCc3ccc(Cl)cc3)cc2s1 [Compound 2c]: max
Nc1nc2ccc(C(=O)NCCc3ccc(Br)cc3)cc2s1 [Compound 2e]: max
Nc1nc2ccc(C(=O)N(CCc3ccc(Cl)c(Cl)c3)C3CC3)cc2s1 [Compound 1b]: max
Nc1nc2ccc(C(=O)NCCc3cccc(Cl)c3)cc2s1 [Compound 2b]: max
Nc1nc2ccc(C(=O)NCCc3cccc(Br)c3)cc2s1 [Compound 2d]: max
Nc1nc2ccc(C(=O)NCCc3ccccc3)cc2s1 [Compound 2a]: max

# next molecule below
I am curious: what A549 cytotoxicity LC50 (50% lethal concentration) value has been reported for Nc1nc2ccc(C(=O)NCCc3ccc(Cl)c(Cl)c3)cc2s1 [Compound 1a] ?
max
